ASSAYED_SYSTEM: T1, recombinant human CD30 extra cellular domain (ECD) protein (human, UniProt P28908 19-379)
T1 construct: Bought from R&D systems; also called rhCD30; human CD30 ECD
T1 sequence: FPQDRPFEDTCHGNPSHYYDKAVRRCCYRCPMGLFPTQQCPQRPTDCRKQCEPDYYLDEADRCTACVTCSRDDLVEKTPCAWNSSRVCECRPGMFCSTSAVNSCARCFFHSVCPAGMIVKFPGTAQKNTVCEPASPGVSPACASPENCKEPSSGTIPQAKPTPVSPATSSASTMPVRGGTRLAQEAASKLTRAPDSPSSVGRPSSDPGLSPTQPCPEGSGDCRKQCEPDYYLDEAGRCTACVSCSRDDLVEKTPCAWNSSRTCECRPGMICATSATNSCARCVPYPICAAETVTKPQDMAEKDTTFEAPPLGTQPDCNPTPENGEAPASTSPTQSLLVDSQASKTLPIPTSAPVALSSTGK
EXPERIMENT_DESCRIPTION: SPR Biacore T200, His-tagged sdAb/Fab captured, 100.0 nM human CD30 as analyte, single curve
PROPERTY_NAME: rhCD30 Binding (RU)

(P) AS54233 sdAb (VHH, Camel sdAb) VHH: QVQLVESGGGSVQAGETLRLSCTASGFTFDGPDMAWYRQAPGNECELVSIISADGRTYYTDSVKGRFTASQDNAKNTVSLYLKSLQPEDTAVYYCAADPRRNCRGNCCGNWGPGTQVTVSS
(Q) AS48463 sdAb (VHH, Camel sdAb) VHH: QVHLMESGGGSVQAGETLRLSCTASGFTFANSDMGWYRQAPGNACELVSIISSHGGTTYYVDSVKGRFTISRHNAENTVYLRMTSLKPEDTALYYCVADPRSNCRGGYCCGYWGPGTQVTVSS
Could you tell me which of these two has the smaller rhCD30 Binding (RU) figure? First: P Second: Q In your reply, give the label of the chosen option.
P
(P: 59.2 RU, Q: 106 RU)
